Provide the recorded Ki for the entries that follow.
biological target: human MC4-R (Homo sapiens); construct: expressed in transfected cells; host or cells: HEK293 T-REx (tetracycline-regulated, Invitrogen); cell line from Palatin Technologies with license from the University of Michigan; assay: Competitive inhibition binding assay with [I125]-NDP-α-MSH or Eu-NDP-α-MSH, membranes of HEK-293 cells expressing recombinant hMC4-R; conditions: human MC4-R; averages of all comparable assays; read-out: Ki
Bridge positions count the residues as written; N and C are the ends. Square brackets hold non-standard residues; d marks the D form. Peptide text beside a SMILES is read from it. Orn = NCCC[C@H](N)C(=O)O
Give bare numbers, in nM.

INSERT INTO measurements (compound, observable, readout_value) VALUES
  ('CC(=O)N[C@@H](CCCNC(=N)N)C(=O)N[C@H]1CCC(=O)NCCC[C@@H](C(N)=O)NC(=O)[C@H](Cc2c[nH]c3ccccc23)NC(=O)[C@H](CCCNC(=N)N)NC(=O)[C@@H](Cc2ccccc2)NC(=O)[C@@H]2C[C@@H](N)CN2C1=O', 'Ki', 6);

Kindly consider the entry below.
Task: Record CC(=O)N[C@@H](CCCNC(=N)N)C(=O)N[C@H]1CCC(=O)NCCC[C@@H](C(N)=O)NC(=O)[C@H](Cc2c[nH]c3ccccc23)NC(=O)[C@H](CCCNC(=N)N)NC(=O)[C@@H](Cc2ccccc2)NC(=O)[C@H](Cc2c[nH]cn2)NC1=O [No. 4] (Ac-REH[dF]RW[Orn]-NH2; lactam 2-7) : what is its Ki with human MC4-R (Homo sapiens)?
Result: 1

====

biological target: human MC4-R (Homo sapiens); construct: expressed in transfected cells; host or cells: HEK293 T-REx (tetracycline-regulated, Invitrogen); cell line from Palatin Technologies with license from the University of Michigan; assay: cAMP functional assay in HEK-293 T-REx cells expressing human MC4-R, induced with doxycycline 0.1 ng/mL (low density); type: cell-based; conditions: human MC4-R cAMP assay, doxycycline 0.1 ng/mL; averages of all comparable assays; read-out: Ec50
pEC50: −log10 of the molar value. Bridge positions count the residues as written; N and C are the ends. Square brackets hold non-standard residues; d marks the D form. Peptide text beside a SMILES is read from it. Orn = NCCC[C@H](N)C(=O)O
Label rule, in plain words: pEC50 of 8 and up is TRUE, under 8 is FALSE.

INSERT INTO assay_data (compound, group) VALUES
  ('CC(=O)N[C@@H](CCCCN)C(=O)N[C@H]1CC(=O)NCCCC[C@@H](C(N)=O)NC(=O)[C@H](Cc2c[nH]c3ccccc23)NC(=O)[C@H](CCCNC(=N)N)NC(=O)[C@@H](Cc2ccccc2)NC(=O)[C@H](Cc2c[nH]cn2)NC1=O [reference compound] (Ac-KDH[dF]RWK-NH2; lactam 2-7)', 'TRUE'),
  ('CC(=O)N[C@@H](CCCNC(=N)N)C(=O)N[C@H]1CCC(=O)NCCC[C@@H](C(=O)O)NC(=O)[C@H](Cc2c[nH]c3ccccc23)NC(=O)[C@H](CCCNC(=N)N)NC(=O)[C@@H](Cc2ccccc2)NC(=O)[C@H](COCc2ccccc2)NC1=O', 'TRUE'),
  ('CCCC[C@H](NC(C)=O)C(=O)N[C@H]1CCC(=O)NCCC[C@@H](C(N)=O)NC(=O)[C@H](Cc2c[nH]c3ccccc23)NC(=O)[C@H](CCCNC(=N)N)NC(=O)[C@@H](Cc2ccccc2)NC(=O)[C@H](Cc2c[nH]cn2)NC1=O', 'TRUE'),
  ('CC(=O)N[C@@H](CCCNC(=N)N)C(=O)N[C@H]1CC(=O)NCCCC[C@@H](C(N)=O)NC(=O)[C@H](Cc2c[nH]c3ccccc23)NC(=O)[C@H](CCCNC(=N)N)NC(=O)[C@@H](Cc2ccccc2)NC(=O)[C@H](C)NC1=O [reference compound] (Ac-RDA[dF]RWK-NH2; lactam 2-7)', 'FALSE'),
  ('CC(=O)N[C@@H](CCCNC(=N)N)C(=O)N[C@H]1CCC(=O)NCCC[C@@H](C(N)=O)NC(=O)[C@H](Cc2c[nH]c3ccccc23)NC(=O)[C@H](CCCNC(=N)N)NC(=O)[C@@H](Cc2ccccc2)NC(=O)[C@H](CC(N)=O)NC1=O', 'TRUE');

Here is the next item to consider.
Task: Can CC(=O)N[C@@H](CCCNC(=N)N)C(=O)N[C@H]1CCC(=O)NCCC[C@@H](C(N)=O)NC(=O)[C@H](Cc2c[nH]c3ccccc23)NC(=O)[C@H](CCCNC(=N)N)NC(=O)[C@@H](Cc2ccccc2)NC(=O)[C@H](CCCCN)NC1=O [No. 16] (Ac-REK[dF]RW[Orn]-NH2; lactam 2-7) be said to have pEC50 at or above 8?
Result: TRUE

====

target: human MC4-R (Homo sapiens, UniProt P32245); construct: expressed in transfected cells; host or cells: HEK293 T-REx (tetracycline-regulated, Invitrogen); cell line from Palatin Technologies with license from the University of Michigan; assay: cAMP functional assay in HEK-293 T-REx cells expressing human MC4-R, induced with doxycycline 0.1 ng/mL (low density); format: cell-based; conditions: HEK293-T-REx; maximal cAMP stimulation, NDP-α-MSH = 100%; doxycycline 0.1 ng/mL; averages of all comparable assays; read-out: Emax
Sequence (P32245 whole entry): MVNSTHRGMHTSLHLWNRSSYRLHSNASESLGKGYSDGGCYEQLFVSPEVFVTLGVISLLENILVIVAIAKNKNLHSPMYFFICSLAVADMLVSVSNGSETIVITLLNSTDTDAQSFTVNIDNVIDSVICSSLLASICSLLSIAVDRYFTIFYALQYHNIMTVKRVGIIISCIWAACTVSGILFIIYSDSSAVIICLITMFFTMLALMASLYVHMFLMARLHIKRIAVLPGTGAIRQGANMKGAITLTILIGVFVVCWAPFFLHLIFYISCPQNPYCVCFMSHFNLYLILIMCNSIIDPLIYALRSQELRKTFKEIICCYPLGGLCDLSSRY
For each record, check the reported Emax: if it is below 80% write yes, else write no.

Use the examples below as a reference point.
INSERT INTO measurements (compound, group) VALUES
  ('CC(=O)N[C@@H](CCCNC(=N)N)C(=O)N[C@H]1CCC(=O)NCCC[C@@H](C(N)=O)NC(=O)[C@H](Cc2c[nH]c3ccccc23)NC(=O)[C@H](CCCNC(=N)N)NC(=O)[C@@H](Cc2ccccc2)NC(=O)[C@H](CCN)NC1=O', 'no'),
  ('CC(=O)N[C@@H](CCCNC(=N)N)C(=O)N[C@H]1CCC(=O)NCCC[C@@H](C(N)=O)NC(=O)[C@H](Cc2c[nH]c3ccccc23)NC(=O)[C@H](CCCNC(=N)N)NC(=O)[C@@H](Cc2ccccc2)NC(=O)[C@H](CCCNC(=N)N)NC1=O', 'no');

Task: Strictly below 80% in Emax? `CC(=O)NCCC[C@@H]1NC(=O)[C@@H](NC(=O)[C@H](CCCNC(=N)N)NC(C)=O)CCC(=O)NCCC[C@@H](C(N)=O)NC(=O)[C@H](Cc2c[nH]c3ccccc23)NC(=O)[C@H](CCCNC(=N)N)NC(=O)[C@@H](Cc2ccccc2)NC1=O`
Result: no

Task: Strictly below 80% in Emax? `CC(=O)N[C@@H](CCCNC(=N)N)C(=O)N[C@H]1CCCNC(=O)CC[C@@H](C(=O)O)NC(=O)[C@H](Cc2c[nH]c3ccccc23)NC(=O)[C@H](CCCNC(=N)N)NC(=O)[C@@H](Cc2ccccc2)NC(=O)[C@H](CCN)NC1=O`
Result: no

Task: Strictly below 80% in Emax? CC(=O)N[C@@H](CCCNC(=N)N)C(=O)N[C@H]1CC(=O)NCCCC[C@@H](C(N)=O)NC(=O)[C@H](Cc2c[nH]c3ccccc23)NC(=O)[C@H](CCCNC(=N)N)NC(=O)[C@@H](Cc2ccccc2)NC(=O)[C@H](CCN)NC1=O [reference compound]
Result: no

Task: Strictly below 80% in Emax? CC(=O)N[C@@H](CCCNC(=N)N)C(=O)N[C@H]1CC(=O)NCCCC[C@@H](C(N)=O)NC(=O)[C@H](Cc2c[nH]c3ccccc23)NC(=O)[C@H](CCCNC(=N)N)NC(=O)[C@@H](Cc2ccccc2)NC(=O)[C@@H]2C[C@@H](O)CN2C1=O [reference compound]
Result: yes

Task: Strictly below 80% in Emax? `CC(=O)N[C@@H](CCCNC(=N)N)C(=O)N[C@H]1CCC(=O)NCCC[C@@H](C(N)=O)NC(=O)[C@H](Cc2c[nH]c3ccccc23)NC(=O)[C@H](CCCNC(=N)N)NC(=O)[C@@H](Cc2ccccc2)NC(=O)[C@@H]2C[C@@H](N)CN2C1=O`
Result: yes

Task: Strictly below 80% in Emax? `CC(=O)N[C@@H](CCCNC(=N)N)C(=O)N[C@H]1CCC(=O)NCCC[C@@H](C(=O)O)NC(=O)[C@H](Cc2c[nH]c3ccccc23)NC(=O)[C@H](CCCNC(=N)N)NC(=O)[C@@H](Cc2ccccc2)NC(=O)[C@H](CCN)NC1=O`
Result: no

Task: Strictly below 80% in Emax? CC(=O)NCCC[C@@H]1NC(=O)[C@@H](NC(=O)[C@H](CCCNC(=N)N)NC(C)=O)CC(=O)NCCCC[C@@H](C(N)=O)NC(=O)[C@H](Cc2c[nH]c3ccccc23)NC(=O)[C@H](CCCNC(=N)N)NC(=O)[C@@H](Cc2ccccc2)NC1=O [reference compound]
Result: yes

Task: Strictly below 80% in Emax? CC(=O)NCC[C@@H]1NC(=O)[C@@H](NC(=O)[C@H](CCCNC(=N)N)NC(C)=O)CC(=O)NCCCC[C@@H](C(N)=O)NC(=O)[C@H](Cc2c[nH]c3ccccc23)NC(=O)[C@H](CCCNC(=N)N)NC(=O)[C@@H](Cc2ccccc2)NC1=O [reference compound]
Result: yes

Value source: patent US20120077957A1
